Target: JAK2 (Homo sapiens (Human), UniProt O60674)
Sequence (O60674 whole entry): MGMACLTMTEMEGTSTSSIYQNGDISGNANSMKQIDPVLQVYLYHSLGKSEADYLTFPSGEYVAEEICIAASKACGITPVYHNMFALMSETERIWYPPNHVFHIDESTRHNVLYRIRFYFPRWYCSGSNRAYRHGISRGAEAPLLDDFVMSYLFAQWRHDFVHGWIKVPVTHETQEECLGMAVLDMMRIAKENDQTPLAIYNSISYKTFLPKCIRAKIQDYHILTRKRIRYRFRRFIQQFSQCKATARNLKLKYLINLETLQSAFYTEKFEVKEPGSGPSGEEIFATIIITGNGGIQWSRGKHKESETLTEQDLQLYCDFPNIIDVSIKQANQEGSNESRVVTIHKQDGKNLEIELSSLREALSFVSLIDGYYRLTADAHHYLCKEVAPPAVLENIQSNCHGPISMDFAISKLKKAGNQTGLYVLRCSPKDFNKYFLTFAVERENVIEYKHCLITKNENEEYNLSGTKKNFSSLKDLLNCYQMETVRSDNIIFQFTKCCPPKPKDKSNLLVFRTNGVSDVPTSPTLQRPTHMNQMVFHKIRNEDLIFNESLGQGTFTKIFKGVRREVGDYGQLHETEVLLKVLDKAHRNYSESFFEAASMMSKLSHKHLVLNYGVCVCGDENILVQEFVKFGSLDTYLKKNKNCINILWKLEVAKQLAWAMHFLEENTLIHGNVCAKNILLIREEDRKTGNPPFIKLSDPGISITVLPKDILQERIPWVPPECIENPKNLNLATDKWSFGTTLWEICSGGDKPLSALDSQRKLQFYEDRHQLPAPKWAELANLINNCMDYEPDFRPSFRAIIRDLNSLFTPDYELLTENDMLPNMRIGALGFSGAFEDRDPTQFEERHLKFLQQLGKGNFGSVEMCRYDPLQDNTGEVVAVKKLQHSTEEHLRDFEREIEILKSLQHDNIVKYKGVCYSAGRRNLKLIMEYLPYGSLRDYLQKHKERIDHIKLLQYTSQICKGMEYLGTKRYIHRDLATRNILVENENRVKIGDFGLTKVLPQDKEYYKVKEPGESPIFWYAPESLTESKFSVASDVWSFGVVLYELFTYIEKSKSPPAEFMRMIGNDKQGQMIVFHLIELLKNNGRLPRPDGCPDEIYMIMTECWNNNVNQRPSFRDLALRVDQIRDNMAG
Test: Z'-LYTE kinase inhibition assay, JAK2
Type: biochemical
Details: read-out: % inhibition JAK2; heading: % inhibition JAK2; compound at 0.041 μM
measurementLabel: inhibition at 0.041 µM

> print(dat)
                             compoundstring  result
1  C=CC(=O)Nc1cccc(-c2cccc3cnc(Nc4ccc(N5CCN(C)CC5)cc4)nc23)c1Cl   > 50%
2  C=CC(=O)Nc1cncc(-c2cccc3cnc(Nc4ccc(N5CCN(C)CC5)cc4)nc23)c1   < 50%
3  C=CC(=O)Nc1cccc(-c2cccc3cnc(Nc4ccc(N5CCN(C)CC5)nc4OC)nc23)c1   < 50%
4  C=CC(=O)Nc1cccc(-c2cccc3cnc(Nc4ccc(N5CCOCC5)cc4)nc23)c1   > 50%
5  c1ccc(-c2cccc3cnc(Nc4ccc(N5CCOCC5)cc4)nc23)cc1   > 50%
6  C=CC(=O)Nc1cccc(-c2nccc3c(N)nc(Nc4ccc(N5CCOCC5)cc4)nc23)c1   < 50%
7  C=CC(=O)Nc1cccc(-c2cccc3cnc(Nc4ccc(N5CCN(C)CC5)cc4)nc23)c1   > 50%
8  C=CC(=O)Nc1cccc(-c2c(C)ccc3cnc(Nc4ccc(N5CCOCC5)cc4)nc23)c1   < 50%

Values from patent US11304957B2
